Molecular target: T1, hFc-hFasL (fusion protein of human Fc fragment and human FasL extracellular region) (human, UniProt P48023 134-281)
T1 sequence: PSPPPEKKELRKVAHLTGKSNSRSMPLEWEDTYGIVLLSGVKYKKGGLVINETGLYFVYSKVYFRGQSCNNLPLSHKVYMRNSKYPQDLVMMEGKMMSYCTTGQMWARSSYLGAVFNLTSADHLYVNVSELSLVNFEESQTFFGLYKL
Test: cell-based or functional assay
measured endpoint: HepG2 IC50(nM), FasL antigen-induced cell apoptosis

* humFL-M54-12 (antibody, human IgG4, V domains shown) VH: QVQLVQSGAEVKKPGSSVKVSCKASGYTFTRFDISWVRQAPGQGLEWMGWIFPGDGSSQYNENFKGRATLTTDKSTSTAYMELSSLRSEDTAVYFCARSLISTAMFDHWGQGTLVTVSS VL: EIVMTQSPATLSVSPGERATLSCRASKSVSTSDFSYIHWYQQKPGQAPRLLIYLASHLESGIPARFSGSGSGTEFTLTISSLQSEDFAVYYCQHSRELPRTFGQGTKVEIK | 0.032
* humFL-M54-1 (antibody, human IgG4, V domains shown) VH: QVQLVQSGAEVKKPGSSVKVSCKASGYTFTRFDISWVRQAPGQGLEWIGWIFPGDGSSQYNENFKGRATLTTDKSTSTAYMELSSLRSEDTAVYFCARSLISTAMFDHWGQGTLVTVSS VL: EIVMTQSPATLSVSPGERATLSCRASKSVSTSDFSYIHWYQQKPGQPPRLLIFLASHLESGIPARFSGSGSGTEFTLTISSLQSEDFAVYYCQHSRELPRTFGQGTKVEIK | 0.028
* humFL-M54-6 (antibody, human IgG4, V domains shown) VH: QVQLVQSGAEVKKPGSSVKVSCKASGYTFTRFDISWVRQAPGQGLEWIGWIFPGDGSSQYNENFKGRATLTTDKSTSTAYMELSSLRSEDTAVYFCARSLISTAMFDHWGQGTLVTVSS VL: EIVMTQSPATLSVSPGERATLSCRASKSVSTSDFSYIHWYQQKPGQPPRLLIYLASHLESGIPARFSGSGSGTEFTLTISSLQSEDFAVYYCQHSRELPRTFGQGTKVEIK | 0.031
